test-system: T1, Anti-HBsAg antibody(g)
T1 construct: also called anti-HBsAg antibodies from goats; goat IgG (HBsAg)
procedure-text: labelled peptide on antibody immobilised on microplate; antigen HBsAg
Ends that are not written are not given here. FAM = carboxyfluorescein (FAM) fluorescent label
Reported change (%) of fluorescence at bottom (B) of microplate values for the following binders.
measured-attribute: change (%) of fluorescence at bottom (B) of microplate

1. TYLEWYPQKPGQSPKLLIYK (not fully specified (N-terminus), Synthetic 20-mer homologous to the FR2 region of the light chain; The label differs between experiments; also called L1 switching peptide; first peptide compound L1) [L1 peptide] = -51.3
2. {FAM}-VYYCFQGSHVPFTK (Synthetic 14-mer homologous to the FR3 or FR4 region of the light chain; also called L2 switching peptide; second peptide compound L2) [L2 peptide] = -64.8
3. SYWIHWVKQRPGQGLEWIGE (not fully specified (N-terminus), Synthetic 20-mer homologous to the FR2 region of the heavy chain; The fluorescent label differs between experiments; also called H1 switching peptide; third peptide compound H1) [H1 peptide] = -58.9
4. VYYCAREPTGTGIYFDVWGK (not fully specified (N-terminus), Synthetic 20-mer homologous to the FR3 or FR4 region of the heavy chain; The label differs between experiments; also called H2 switching peptide; fourth peptide compound H2) [H2 peptide] = -36.1
